All values here come from patent US10131653B2.

biological target: human OX2 receptor (Homo sapiens, UniProt O43614); construct: expressed in transfected cells; host or cells: CHO cells; assay: Measurement of orexin receptor antagonistic activity (calcium fluorescence, FLIPRtetra); format: cell-based; conditions: CHO, 10 μM test compound; CHO cells expressing human OX2 receptor; OX-A 0.3 nM; read-out: Human Orexin2 receptor inhibition (at 10 μM)
Sequence (O43614 whole entry): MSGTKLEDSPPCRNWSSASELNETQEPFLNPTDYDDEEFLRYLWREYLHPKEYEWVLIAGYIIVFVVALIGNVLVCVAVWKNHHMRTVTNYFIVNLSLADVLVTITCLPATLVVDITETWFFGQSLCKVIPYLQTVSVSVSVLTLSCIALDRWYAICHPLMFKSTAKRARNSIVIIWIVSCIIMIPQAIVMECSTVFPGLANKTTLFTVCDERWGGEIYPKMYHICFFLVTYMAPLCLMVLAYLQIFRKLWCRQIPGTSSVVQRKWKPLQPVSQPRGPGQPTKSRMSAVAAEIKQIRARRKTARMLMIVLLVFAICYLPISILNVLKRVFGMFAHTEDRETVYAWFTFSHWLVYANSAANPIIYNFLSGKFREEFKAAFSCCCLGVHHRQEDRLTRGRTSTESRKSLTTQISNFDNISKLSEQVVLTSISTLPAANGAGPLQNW
Counter-ions that a name gives are not always drawn.
In this section we review reported inhibition at 10 µM values for a set of compounds.
Reply numerically in %, unit not repeated.

Check out these entries, answers already filled in.
compound | inhibition at 10 µM, %
Cc1cc(N2CCN(C(=O)c3cc(Cl)ccc3-c3nccs3)C[C@H](C)O2)nc(C)n1 [Example 88, hydrochloride] | 99
Cc1cc(N2CCN(C(=O)c3cc(C#N)ccc3-n3nccn3)CCO2)nc(C)n1 | 103
Cc1ccc(C(=O)N2CCN(c3cc(C)nc(C)n3)O[C@@H](C)C2)c(-c2ncccn2)c1 | 101
Cc1cc(N2C[C@H](C)N(C(=O)c3ccccc3-n3nccn3)CC(C)O2)nc(C)n1 (some centres unmarked) | 111
COc1ncnc(N2CCN(C(=O)c3ccccc3-n3nccn3)[C@H](C)CO2)n1 | 89

Challenge: Fill blank: measured inhibition at 10 µM of the compound Cc1cc(N2CCN(C(=O)c3ccccc3-n3nccn3)C(C)C(C)O2)nc(C)n1 (centres unmarked) is ____.
Response given: 101
